experimental-target: T1, ROR1 extracellular domain Fc-fusion, dimer (human, UniProt Q01973 30-406)
T1 construct: also called ROR1 dimer; hROR1 dimeric ECD-Fc fusion protein; not shown: Fc part
T1 sequence (Q01973 30-406): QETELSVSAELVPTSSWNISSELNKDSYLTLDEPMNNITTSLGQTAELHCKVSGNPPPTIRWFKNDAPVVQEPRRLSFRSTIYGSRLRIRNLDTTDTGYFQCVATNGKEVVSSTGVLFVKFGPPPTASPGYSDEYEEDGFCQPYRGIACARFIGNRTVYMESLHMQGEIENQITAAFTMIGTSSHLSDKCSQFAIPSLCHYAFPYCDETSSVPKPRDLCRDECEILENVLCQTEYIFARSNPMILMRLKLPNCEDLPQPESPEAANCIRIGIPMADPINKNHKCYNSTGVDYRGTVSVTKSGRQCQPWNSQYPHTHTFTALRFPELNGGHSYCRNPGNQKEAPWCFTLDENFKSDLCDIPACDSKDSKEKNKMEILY
method-description: SPR, immobilised ROR1 dimer, antibody injected, 1:1 model; apparent affinity
measurement-label: Kd (nM)
Reply with just the number (in nM).

Below, each entry is followed by its recorded Kd result.
Antibody 601-66 (antibody, V domains shown) VH: QVQLVQSGAEVKEPGASVKVSCKASGYTFRNSGITWVRQAPGQGLEWMGWINPNSGGAMYVDNFQGRATMTRDTSINTAYMELRSLSSDDTAVYYCARGMADLIDVFDIWGQGTLVTVSS VL: TQPALTQPASVSGSPGQSITISCTGTSSDFGDYDYVSWYQQHPGKAPKLMIYDVSDRPSGVSNRFSGSKSGNTASLTISGLQAEDEADYFCSSFTTSSTLVFGGGTKLTVL	1.7
Antibody 601-112 (antibody, V domains shown) VH: EVQLVQSGGDLVQPGGSLRLSCAASGFTFSSYSMNWVRQAPGKGLEWVSSISSSSSYIYYADSVKGRFTISRDNAKNSLYLQMNSLRAEDTAVYYCARGLGGWTHDAFDIWGQGTTVTVSS VL: QSALTQPASVSGSPGQSITISCTGTSSDVGGYNYVSWYQQHPGKAPKLMIYDVSKRPSGVSNRFSGSKSGNTASLTISGLQAEDEADYYCSSYTGRSTVFGGGTKLTVL	1

Please look at the following binder next.
Ask: Determine from records and report Kd for Antibody 601-130 (antibody, V domains shown) VH: EVQLVETGGGLVKPGGSLRLSCEASGFSLSSYSMNWVRQAPGKGLEWVSSISSSSTHIYYADSLKGRFTISRDNAKNSLFLQMDNLRAEDTAVYYCARATIGFDYWGQGTLVTVSS VL: QSVLTQPPSVSGAPGQRVTISCTGSSSNIGAGYDVHWYQQLPGTAPKLLIYGNSNRPSGVPDRFSGSKSGTSASLAITGLQAEDEADYYCQSYDSSLSGYVFGTGTKLTVL
Result: 2.2
